# protocolSummary: caspase-8 TRAIL sensitization, hit retest, confirmation, cell-based, NB7+caspase-8, with/without TRAIL, luminescence panel (AID 651596)
# appliedConditions: NB7 neuroblastoma + caspase-8, without TRAIL, luminescence viability, without TRAIL, mean of runs, at 10 µM
Please provide measured activity for the entries that follow.
Reply with the number, then its unit.

[
  {
    "molecule": "c1ccc2c(c1)COc1c3cc4c(cc3nn1-2)OCO4",
    "readoutName": "activity",
    "result": "53.8%"
  },
  {
    "molecule": "C/C(=N\\Nc1nc2ccccc2[nH]1)c1cc2ccccc2o1",
    "readoutName": "activity",
    "result": "43.7%"
  },
  {
    "molecule": "Cc1ccc(-c2nnc(-c3cccc4ccccc34)o2)cc1",
    "readoutName": "activity",
    "result": "44%"
  },
  {
    "molecule": "O=C(N/N=C/c1cccc(O)c1)c1ccc2c(c1)OCCO2",
    "readoutName": "activity",
    "result": "90.7%"
  }
]

Provide each entry's activity from the list below.
1. O=c1oc2c(O)cccc2cc1-c1nc2ccccc2[nH]1
2. Nc1cnnc(N/N=C\c2ccccc2)c1Cl
3. Cc1ccc2nc(NC(=S)NC(=O)c3ccco3)sc2c1
4. CSc1nnc(NC(=O)c2nc(S(=O)(=O)Cc3ccc(C)cc3)ncc2Cl)s1

1. 68.8%
2. 19.8%
3. 62.9%
4. 82.2%

Provide each entry's activity from the list below.
1. O=C(Nc1nc2cc3c(cc2s1)OCCO3)c1ccc([N+](=O)[O-])o1
2. O=C(Nc1ccc(N2CCCC2)c(Cl)c1)c1ccco1
3. CCc1ccc(NC(=O)Nc2cccs2)cc1

1. 84.1%
2. 27%
3. 45.9%

Provide each entry's activity from the list below.
1. CCN1CCC(O)(/C=C/c2ccc(C(C)C)cc2)C(C(=O)/C=C/c2ccc(C(C)C)cc2)C1 (configuration not stated)
2. COC(=O)c1cc(OCC(=O)Nc2ccc3c(c2)CCC3)cc(C(=O)OC)c1
3. O=C(CSC(=S)N1CCCCC1)c1ccccc1

82.8%
-57.5%
35.2%

Provide each entry's activity from the list below.
1. C/C(=N\NC(=O)c1nn(C)c(C)c1Br)c1cccc(NC(=O)c2ccc(F)cc2)c1
2. CCc1ccc(/C=N/NC(=O)c2c[nH]c3ccccc23)s1
3. Cn1c(C(=O)NCCC2=CCCCC2)cc2c(=O)n3ccccc3nc21

1. 50.5%
2. 20.4%
3. 57.7%

Where do the numbers come from? From PubChem BioAssay.
